Hello, the source for this data is ChEMBL document CHEMBL4342521, in case you need it.

Measurement record for Histone deacetylase 2 (Homo sapiens); quantity recorded: log10 of IC50.
Remember, log10 of IC50, in nM.

Can you give me log10 of IC50 for all of these, one by one?
1. CCCCN(CCC)NC(=O)/C=C/c1ccc(CNCCc2c(C)[nH]c3ccccc23)cc1
2. CCCNNC(=O)c1ccc(OCc2ccccc2)cc1

1. 3.51
2. 2.24

====

ASSAY NOTES: Cmax in BALB/c mouse at 50 mg/kg, po via gavage after 24 hrs by Lc-MS/MS analysis
Format: ADME, organism-based
Design: dose 50 mg/kg, route oral
EXPERIMENTAL CONTEXT: in vivo
MEASUREMENT TYPE: Cmax (ng/mL)
One number for each entry, in ng/mL.

Memo: Cc1[nH]c2ccccc2c1CCNCc1ccc(/C=C/C(=O)NO)cc1 [PANOBINOSTAT] , reported Cmax: 116
